All figures here come from PubChem BioAssay AID1963849.

- Tested on: 299254-011-R-J1-PDC complex spheroid viability
- ASSAY OVERVIEW: Anticancer human tumor 299254-011-R-J1-PDC patient-derived melanoma cell line growth inhibition [POLQ]
- TEST PARAMETERS: second compound 1 µM; first compound 0.01 µM; hits give low values

MOLECULE	UNITS TEXT	viability, T/C
COc1cccc(OCCCN)c1-c1cc(Nc2cnc(C#N)cn2)n[nH]1 + Cc1cccc(N(C)C(=O)C2C(O)CCN2c2nc(C)cc(C(F)(F)F)c2C#N)c1	%	103
CCc1c2c(nc3ccc(O)cc13)-c1cc3c(c(=O)n1C2)COC(=O)[C@]3(O)CC + Cc1cccc(N(C)C(=O)C2C(O)CCN2c2nc(C)cc(C(F)(F)F)c2C#N)c1	%	88.5
C=CCn1c(=O)c2cnc(Nc3ccc(N4CCN(C)CC4)cc3)nc2n1-c1cccc(C(C)(C)O)n1 + COC1C(OC(N)=O)C(O)C(Oc2ccc3c(O)c(NC(=O)c4ccc(O)c(CC=C(C)C)c4)c(=O)oc3c2C)OC1(C)C	%	96.2
Cn1ncnc1[C@H]1c2n[nH]c(=O)c3cc(F)cc(c23)N[C@@H]1c1ccc(F)cc1 + Nc1ccc(C#CCN(C(=O)Cc2ncc(C(F)(F)F)cc2C(F)(F)F)c2ccc(F)cc2)nn1	%	107
Cn1ncnc1[C@H]1c2n[nH]c(=O)c3cc(F)cc(c23)N[C@@H]1c1ccc(F)cc1 + Cc1cccc(N(C)C(=O)C2C(O)CCN2c2nc(C)cc(C(F)(F)F)c2C#N)c1	%	114

* * *

- Test system: 299254-011-R-J1-PDC complex spheroid viability
- ASSAY OVERVIEW: Anticancer human tumor 299254-011-R-J1-PDC cell line growth inhibition [POLQ];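 note: spheroids exposed to drugs for one week before measurement; percent viability relative to DMSO vehicle control taken as 100%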
- TEST PARAMETERS: second compound 3.16 µM; first compound 0.000316 µM; hits give low values

COMPOUND	viability, T/C, %
Cn1ncnc1[C@H]1c2n[nH]c(=O)c3cc(F)cc(c23)N[C@@H]1c1ccc(F)cc1 + COC1C(OC(N)=O)C(O)C(Oc2ccc3c(O)c(NC(=O)c4ccc(O)c(CC=C(C)C)c4)c(=O)oc3c2C)OC1(C)C	99.7
Cn1ncnc1[C@H]1c2n[nH]c(=O)c3cc(F)cc(c23)N[C@@H]1c1ccc(F)cc1 + Cc1cccc(N(C)C(=O)C2C(O)CCN2c2nc(C)cc(C(F)(F)F)c2C#N)c1	90.1
CC[C@@]1(O)C(=O)OCc2c1cc1n(c2=O)Cc2cc3c(CN(C)C)c(O)ccc3nc2-1 + Cc1cccc(N(C)C(=O)C2C(O)CCN2c2nc(C)cc(C(F)(F)F)c2C#N)c1	108
CC[C@@]1(O)C(=O)OCc2c1cc1n(c2=O)Cc2cc3c(CN(C)C)c(O)ccc3nc2-1 + COC1C(OC(N)=O)C(O)C(Oc2ccc3c(O)c(NC(=O)c4ccc(O)c(CC=C(C)C)c4)c(=O)oc3c2C)OC1(C)C	115
CC[C@@]1(O)C(=O)OCc2c1cc1n(c2=O)Cc2cc3c(CN(C)C)c(O)ccc3nc2-1 + Nc1ccc(C#CCN(C(=O)Cc2ncc(C(F)(F)F)cc2C(F)(F)F)c2ccc(F)cc2)nn1	94.2
Cn1ncnc1[C@H]1c2n[nH]c(=O)c3cc(F)cc(c23)N[C@@H]1c1ccc(F)cc1 + Nc1ccc(C#CCN(C(=O)Cc2ncc(C(F)(F)F)cc2C(F)(F)F)c2ccc(F)cc2)nn1	103
